Target: Y2 receptors (Homo sapiens, UniProt P49146)
Construct: endogenous in cells; host or cells: KAN-Ts cells (membranes)
Sequence (P49146 whole entry): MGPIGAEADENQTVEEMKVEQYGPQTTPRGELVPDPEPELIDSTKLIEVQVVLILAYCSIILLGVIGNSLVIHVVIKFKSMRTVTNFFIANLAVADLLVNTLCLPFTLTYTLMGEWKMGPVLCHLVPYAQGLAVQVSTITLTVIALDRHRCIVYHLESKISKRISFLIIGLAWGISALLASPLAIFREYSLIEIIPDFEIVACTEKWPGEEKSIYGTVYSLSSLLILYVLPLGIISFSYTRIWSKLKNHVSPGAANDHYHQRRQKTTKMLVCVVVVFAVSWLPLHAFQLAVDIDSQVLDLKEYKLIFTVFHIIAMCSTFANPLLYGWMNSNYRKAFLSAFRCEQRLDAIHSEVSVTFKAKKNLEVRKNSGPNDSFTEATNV
Test: Radioligand binding assay ([125I]PYY, KAN-Ts cell membranes)
Settings: Table 2, [125I]PYY 80 pM, average of results, read-out: IC50
pIC50: −log10 of the molar value.
# if value of pIC50 reaches 7, tag yes; if it stays below, tag no

Here are 5 compounds together with their reported answers.
compound: CCC(CC)C(=O)Nc1ccc(N2CCC(C(C(=O)N3CCC(F)(F)C3)c3ccccc3)CC2)c(F)c1 (stereo not drawn) [Example 210]
category-label: yes
--
compound: CCC(CC)C(=O)Nc1ccc(N2CCC(C(C(=O)N3CCC(F)CC3)c3ccccc3)CC2)c(F)c1 (stereo not drawn) [Example 206]
category-label: yes
--
compound: CCN(CC)C(=O)C(c1ccccc1)N1CCN(c2ccc(CC(=O)N3CCCC3c3ccccc3)cc2F)CC1 (stereo not drawn) [Example 276]
category-label: no
--
compound: CCN(CC)C(=O)C(c1ccccc1)N1CCN(c2ccc(CC(=O)N(C)Cc3ccco3)cc2F)CC1 (stereo not drawn) [Example 278]
category-label: no
--
compound: CCN(CC)C(=O)C(c1ccccc1)N1CCN(c2ccc(CC(=O)N3CCCCC3c3cccnc3)cc2F)CC1 (stereo not drawn) [Example 280]
category-label: no

-- ask Check this compound for pIC50 at or above 7: CCC(CC)C(=O)Nc1ccc(N2CCN(C(C(=O)N(CC)CC)c3ccc(OC)cc3)CC2)c(C#N)c1 (stereo not drawn) [Example 250]
-- reply yes

-- ask Check this compound for pIC50 at or above 7: CCC(C)C(=O)c1ccc(N2CCN(C(C(=O)N(CC)CC)c3ccccc3)CC2)c(F)c1 (stereo not drawn) [Example 169]
-- reply no

-- ask Check this compound for pIC50 at or above 7: CCC(CC)C(=O)Nc1ccc(N2CCC(C(C(=O)N(CC)CC)c3ccccc3)CC2)nc1 (stereo not drawn) [Example 205]
-- reply no

-- ask Check this compound for pIC50 at or above 7: CCNC(=O)C(c1ccccc1)N1CCN(c2c(F)cc(NC(=O)C3CCCC3)cc2F)CC1 (stereo not drawn) [Example 239]
-- reply no
